Measured values drawn from PubChem BioAssay (EPA / NIEHS) for this set.

target: AR (gene 367) (UniProt P10275); test: ACEA_AR_antagonist_80hr: ACEA Biosciences xCELLigence Real-Time Cell Analysis on Androgen Receptor Antagonism for Proliferation (AID 2283787);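 also: 22Rv1 human prostate cancer cells with growth followed by electrical impedance; hits lower the impedance growth signal relative to DMSO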
Sequence (P10275 whole entry, looked up): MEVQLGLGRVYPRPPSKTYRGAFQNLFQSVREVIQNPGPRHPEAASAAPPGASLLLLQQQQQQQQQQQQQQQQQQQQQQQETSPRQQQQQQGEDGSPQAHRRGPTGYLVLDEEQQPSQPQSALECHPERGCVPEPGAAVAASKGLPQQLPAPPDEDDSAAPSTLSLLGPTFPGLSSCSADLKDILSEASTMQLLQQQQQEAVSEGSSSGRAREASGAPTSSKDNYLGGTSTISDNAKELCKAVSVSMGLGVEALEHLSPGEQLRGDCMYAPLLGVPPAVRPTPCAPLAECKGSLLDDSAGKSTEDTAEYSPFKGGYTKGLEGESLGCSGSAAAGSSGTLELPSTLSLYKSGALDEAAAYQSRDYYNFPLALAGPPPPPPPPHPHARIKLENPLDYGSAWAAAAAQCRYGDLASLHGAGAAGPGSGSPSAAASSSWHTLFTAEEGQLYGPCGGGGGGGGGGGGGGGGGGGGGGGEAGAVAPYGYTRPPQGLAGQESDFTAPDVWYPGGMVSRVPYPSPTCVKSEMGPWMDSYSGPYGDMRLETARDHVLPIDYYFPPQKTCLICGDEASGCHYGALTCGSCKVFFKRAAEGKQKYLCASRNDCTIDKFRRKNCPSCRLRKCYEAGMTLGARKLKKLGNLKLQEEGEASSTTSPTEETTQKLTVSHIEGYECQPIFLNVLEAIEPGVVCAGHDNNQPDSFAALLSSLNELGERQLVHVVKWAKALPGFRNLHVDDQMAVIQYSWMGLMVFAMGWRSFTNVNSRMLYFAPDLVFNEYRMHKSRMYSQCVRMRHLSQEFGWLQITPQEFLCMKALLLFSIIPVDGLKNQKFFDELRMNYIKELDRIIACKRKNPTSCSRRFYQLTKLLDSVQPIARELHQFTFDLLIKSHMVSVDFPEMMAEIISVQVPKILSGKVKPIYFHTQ
Results filed as inconclusive are left out. Calls of active or inactive are those of the source. The calls were made as follows: active = hit-call score of the fitted dose curve at least 0.9, where 1 is the maximum; inconclusive = response in the unintended direction; inactive = score below 0.9.
Write down one outcome, taken from class 1 for active, class 0 for inactive

1. CC(C)(O)c1cnn2c(-c3ccc(F)c(-c4c(F)cccc4C#N)c3)cnc2n1: class 1
2. CC(C)N(Cc1ccccc1)C(=O)C(C)(C)C: class 0
3. CCNS(=O)(=O)C(F)(F)C(F)(F)C(F)(F)C(F)(F)C(F)(F)C(F)(F)C(F)(F)C(F)(F)F: class 0
4. C[C@]12C=CC3=C4CCC(=O)C=C4CC[C@H]3[C@@H]1CC[C@@H]2O: class 0
5. COC(=O)Nc1nc2ccccc2[nH]1: class 1
6. O=C(Nc1ccccc1)c1ccccc1I: class 0
7. O=[N+]([O-])C(Br)(CO)CO: class 1
8. Nc1ccc([N+](=O)[O-])cc1: class 1
9. O=C1CCCO1: class 0
10. CC(C)(OOC(C)(C)c1ccccc1)c1ccccc1: class 1

[in] Dear all, I need the recorded test outcome for C[N+](C)(C)CC1CO1 (configuration not stated) , thank you.
[out] class 0

[in] Dear all, I need the recorded test outcome for CNC(=O)Oc1cccc2c1OC(C)(C)C2 , thank you.
[out] class 0
